Target: 5-Lipoxygenase (Rattus norvegicus)
Construct: host or cells: RBL-1 (rat basophilic leukemia)
Sequence (P12527 whole entry): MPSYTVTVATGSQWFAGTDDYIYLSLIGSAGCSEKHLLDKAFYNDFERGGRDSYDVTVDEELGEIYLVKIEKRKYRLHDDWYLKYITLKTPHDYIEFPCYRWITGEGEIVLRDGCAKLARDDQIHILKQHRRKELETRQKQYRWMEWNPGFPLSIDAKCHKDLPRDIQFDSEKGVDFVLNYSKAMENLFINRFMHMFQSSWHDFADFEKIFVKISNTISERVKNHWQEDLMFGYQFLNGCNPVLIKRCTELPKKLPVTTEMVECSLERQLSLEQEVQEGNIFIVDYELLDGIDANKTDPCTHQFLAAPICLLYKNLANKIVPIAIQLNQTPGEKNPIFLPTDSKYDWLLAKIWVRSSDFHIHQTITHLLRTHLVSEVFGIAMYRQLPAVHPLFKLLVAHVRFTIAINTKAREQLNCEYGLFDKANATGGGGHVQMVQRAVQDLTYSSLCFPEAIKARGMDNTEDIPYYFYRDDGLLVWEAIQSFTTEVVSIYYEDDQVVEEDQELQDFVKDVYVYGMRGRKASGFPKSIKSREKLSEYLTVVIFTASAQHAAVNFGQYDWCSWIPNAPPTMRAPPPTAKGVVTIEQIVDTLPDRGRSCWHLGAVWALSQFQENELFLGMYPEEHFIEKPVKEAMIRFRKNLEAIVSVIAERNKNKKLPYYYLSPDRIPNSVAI
Test: ARBL whole cell 5-lipoxygenase assay (LTB4 formation in RBL-1 cells, A23187-stimulated)
Assay type: cell-based
Conditions: Table 2, @ 10 μM, read-out: ARBL, % inhibition at given concentration
Structures can show the parent of a compound that is named as a salt.
measured_attribute: inhibition at 10 µM
Number first, unit second: that is the form wanted.

// below: answered compounds
>  <compound>
CSc1nnc(-c2ccccc2Nc2cccc(C(F)(F)F)c2)s1

>  <observed_measurement>
66%

$$$$
>  <compound>
Cc1ccc(Cl)c(Nc2ccccc2-c2nnc(NC(=N)N)o2)c1Cl [Example 22, monohydrochloride]

>  <observed_measurement>
46%

$$$$
>  <compound>
C[S+]([O-])c1nnc(-c2ccccc2Nc2cccc(C(F)(F)F)c2)s1 (centres unmarked)

>  <observed_measurement>
100%

$$$$

Item: N=C(N)Nc1nnc(-c2ccccc2Nc2cccc(C(F)(F)F)c2)o1 [Example 27, hydrochloride] Test system: 5-Lipoxygenase (Rattus norvegicus) Read-out: inhibition at 10 µM Value: ?
100%

Item: Cc1ccc(Cl)c(Nc2ccccc2-c2nnc(N)o2)c1Cl Test system: 5-Lipoxygenase (Rattus norvegicus) Read-out: inhibition at 10 µM Value: ?
45%
